What MIC50 was measured for each of the following?
- System: Campylobacter coli
- ASSAY_EXPLANATION: Antibacterial activity against Campylobacter coli by NCCLS agar doubling dilution method
- Type: functional
Reply with a number, then the unit it belongs to.

The reported value for CC1(C)S[C@@H]2[C@H](NC(=O)C(C(=O)O)c3ccccc3)C(=O)N2[C@H]1C(=O)O (stereo partly drawn) in terms of MIC50 is 128 µg/mL

The reported value for CC1(C)S[C@@H]2[C@H](NC(=O)[C@H](N)c3ccc(O)cc3)C(=O)N2[C@H]1C(=O)O in terms of MIC50 is 128 µg/mL

The reported value for CC1(C)S[C@@H]2[C@H](NC(=O)[C@H](N)c3ccccc3)C(=O)N2[C@H]1C(=O)O in terms of MIC50 is 64 µg/mL

====

- Test system: Campylobacter jejuni
- ASSAY_EXPLANATION: Antibacterial activity against Campylobacter jejuni by NCCLS agar doubling dilution method
- Type: functional
ENDPOINT_NAME: MIC50

Let me check: CC(=O)OCC1=C(C(=O)O)N2C(=O)[C@@H](NC(=O)Cc3cccs3)[C@H]2SC1 , system Campylobacter jejuni, measured MIC50 is > 256 µg/mL

Let me check: Cn1nnnc1SCC1=C(C(=O)O)N2C(=O)[C@@H](NC(=O)[C@H](O)c3ccccc3)[C@H]2SC1 , system Campylobacter jejuni, measured MIC50 is > 256 µg/mL

Let me check: CCN1CCN(C(=O)N[C@@H](C(=O)N[C@@H]2C(=O)N3[C@@H]2SC(C)(C)[C@@H]3C(=O)O)c2ccccc2)C(=O)C1=O , system Campylobacter jejuni, measured MIC50 is ≥ 512 µg/mL

Source: ChEMBL document CHEMBL1649560
